Some binders, each annotated with its measured % inhibition at 10 nM.
target.desc: human plasma kallikrein (human, UniProt P03952 20-390; P03952 391-638)
Sequence (P03952 20-390, chain 1 of 2): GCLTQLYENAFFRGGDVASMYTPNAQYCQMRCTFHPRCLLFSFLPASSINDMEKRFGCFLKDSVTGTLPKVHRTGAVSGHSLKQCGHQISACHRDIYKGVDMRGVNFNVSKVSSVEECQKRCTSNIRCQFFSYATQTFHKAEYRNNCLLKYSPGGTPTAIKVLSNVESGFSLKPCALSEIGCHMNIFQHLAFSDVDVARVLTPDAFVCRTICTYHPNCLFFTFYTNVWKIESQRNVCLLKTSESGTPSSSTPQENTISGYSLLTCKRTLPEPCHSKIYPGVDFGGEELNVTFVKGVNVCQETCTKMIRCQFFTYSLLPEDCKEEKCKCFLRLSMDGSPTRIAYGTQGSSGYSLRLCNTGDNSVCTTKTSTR
Sequence (P03952 391-638, chain 2 of 2): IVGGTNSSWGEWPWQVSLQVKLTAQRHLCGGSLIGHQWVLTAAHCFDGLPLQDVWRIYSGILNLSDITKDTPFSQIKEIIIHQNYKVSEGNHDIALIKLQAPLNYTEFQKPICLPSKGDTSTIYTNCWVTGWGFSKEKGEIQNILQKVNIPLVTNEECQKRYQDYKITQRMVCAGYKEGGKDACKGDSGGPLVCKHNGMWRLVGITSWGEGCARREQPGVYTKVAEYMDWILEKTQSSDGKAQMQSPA
assay: cell-based or functional assay
Respond numerically; units are % and should not be typed.

Field: example entries. Status: answers known.
- M202-G03 (Fab, V domains shown) VH: EVQLLESGGGLVQPGGSLRLSCAASGFTFSHYIMMWVRQAPGKGLEWVSGIYSSGGITVYADSVKGRFTISRDNSKNTLYLQMNSLRAEDTAVYYCAFRRTGVPRRDSFEIWGQGTMVTVSS VL: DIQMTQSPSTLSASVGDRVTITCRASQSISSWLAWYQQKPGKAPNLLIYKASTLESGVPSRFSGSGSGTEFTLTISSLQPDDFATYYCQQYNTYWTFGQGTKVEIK: 88.3
- M195-B02 (Fab, V domains shown) VH: EVQLLESGGGLVQPGGSLRLSCAASGFTFSPYLMWWVRQAPGKGLEWVSYIGPSGGPTHYADSVKGRFTISRDNSKNTLYLQMNSLRAEDTAVYYCAYRRTGIPRRDAFDIWGQGTMVTVSS VL: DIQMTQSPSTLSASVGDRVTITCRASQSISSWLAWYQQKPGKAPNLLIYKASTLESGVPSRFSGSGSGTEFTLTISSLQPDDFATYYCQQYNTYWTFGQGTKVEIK: 75.1
- M201-A07 (Fab, V domains shown, Tested as Fab; printed HC runs into CH1) VH: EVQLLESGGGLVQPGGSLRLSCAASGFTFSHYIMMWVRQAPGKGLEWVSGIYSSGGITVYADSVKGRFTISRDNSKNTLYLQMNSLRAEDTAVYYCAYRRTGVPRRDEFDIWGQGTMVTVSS VL: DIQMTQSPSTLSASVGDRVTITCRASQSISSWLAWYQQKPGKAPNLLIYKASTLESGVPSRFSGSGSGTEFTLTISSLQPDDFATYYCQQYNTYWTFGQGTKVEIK: 95.7

stdin: Recorded % inhibition at 10 nM of M200-B01 (Fab, V domains shown) VH: EVQLLESGGGLVQPGGSLRLSCAASGFTFSHYIMMWVRQAPGKGLEWVSGIYSSGGITVYADSVKGRFTISRDNSKNTLYLQMNSLRAEDTAVYYCAYRRTGIPRRDAFDSWGQGTMVTVSS VL: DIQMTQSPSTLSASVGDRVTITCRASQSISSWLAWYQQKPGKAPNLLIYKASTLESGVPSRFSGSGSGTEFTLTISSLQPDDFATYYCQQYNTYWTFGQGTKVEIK , please.
stdout: 42.6

stdin: Which % inhibition at 10 nM is reported for this binder? M198-C09 (Fab, V domains shown) VH: EVQLLESGGGLVQPGGSLRLSCAASGFTFSIYTMYWVRQAPGKGLEWVSSISPSGGWTYYADSVKGRFTISRDNSKNTLYLQMNSLRAEDTAVYYCAYRRTGIPRRDAFDIWGQGTMVTVSS VL: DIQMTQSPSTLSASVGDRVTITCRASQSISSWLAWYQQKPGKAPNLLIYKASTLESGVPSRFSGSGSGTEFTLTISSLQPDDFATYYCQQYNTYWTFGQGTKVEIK
stdout: 75.4
